ABSOLUTE EOSINOPHIL values by entry
- Species on record: Rattus norvegicus
- ASSAY TEXT: DrugMatrix - Regimen: Daily Repeat
- Assay type: toxicity, organism-based, Sprague-Dawley
- Parameters: regimen Daily Repeat, gender Male, age 6-8 weeks
- CONDITION SET: in vivo, po, 1500 mg/kg, 120 h, tissue Blood, route oral GAVAGE, dose level High, time 5 day, vehicle .5 % CMC
Kindly provide the numeric value in CELLS/uL only, without the unit symbol.

Could you tell me which ABSOLUTE EOSINOPHIL is on file for Cc1ccc(S(=O)(=O)NC(=O)NN2CC3CCCC3C2)cc1 (configuration not stated) [GLICLAZIDE] ?
0

Could you tell me which ABSOLUTE EOSINOPHIL is on file for O=C(N[C@H](CO)[C@H](O)c1ccc([N+](=O)[O-])cc1)C(Cl)Cl ?
0

Could you tell me which ABSOLUTE EOSINOPHIL is on file for CO[C@H]1/C=C/O[C@@]2(C)Oc3c(C)c(O)c4c(c3C2=O)C2=NC3(CCN(CC(C)C)CC3)NC2=C(NC(=O)/C(C)=C\C=C\[C@H](C)[C@H](O)[C@@H](C)[C@@H](O)[C@@H](C)[C@H](OC(C)=O)[C@@H]1C)C4=O ?
0

Could you tell me which ABSOLUTE EOSINOPHIL is on file for NC(=O)c1cnccn1 [PYRAZINAMIDE] ?
88

Could you tell me which ABSOLUTE EOSINOPHIL is on file for CNC(=C[N+](=O)[O-])NCCSCc1ccc(CN(C)C)o1 ?
61.33

Could you tell me which ABSOLUTE EOSINOPHIL is on file for Cc1cc(=O)n(-c2ccccc2)n1C [ANTIPYRINE] ?
0

Could you tell me which ABSOLUTE EOSINOPHIL is on file for C[C@]1(Cn2ccnn2)[C@H](C(=O)O)N2C(=O)C[C@H]2S1(=O)=O ?
130.33
